tested on: HeLa; assay: cells; type: functional; conditions: Homo sapiens
Description: In vitro inhibition of cytochrome C release in isolated mitochondria by the compound at a concentration of 20 uM was determined
Documented inhibition at 20 µM across a set of compounds

Report inhibition at 20 µM for FC(F)(CN1CCNCC1)Cn1c2ccc(Br)cc2c2cc(Br)ccc21 please.
96%

Same thing, different compound: OC(CN1CCN(CCN2CCOCC2)CC1)Cn1c2ccc(Br)cc2c2cc(Br)ccc21 (centres undefined)
95%

Same thing, different compound: OC(CN1CCNCC1)Cn1c2ccc(Br)cc2c2cc(Br)ccc21 (centres undefined)
99%

Same thing, different compound: COc1ccc(CN2CCN(CC(O)Cn3c4ccc(Br)cc4c4cc(Br)ccc43)CC2)cc1 (centres undefined)
99%
